# method-summary: Novel Modifiers of Survival Motor Neuron (SMN) Protein: Gene Identification via Genome-wide siRNA Screen;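 further: luminescence tracks full-length SMN protein made from the SMN2 reporter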
# measurement-context: HEK293T SMN2-luciferase reporter, siRNA knockdown, 72 h; actives lie on both sides
About 1,400 (4.5%) of roughly 31,000 sequences were called active. This excerpt belongs to a sample that is enriched for actives.
Labelling field: enter Met if recorded median seed-adjusted z-score is less than 0.09. Enter Not met if it equals or exceeds that cut-off.

Example cases with answers are listed next.
GGAAAUCGUUCAGUAAGAATT against ZNF175
Met
GAAUGCUCCUUUACCAGAATT against GRB10
Met
GGAGGGCAUUGUCACUAAATT against MCM3
Not met
UCCUCAACGUGUGCGAUGATT against KCNG1
Met
GGAUGACUACAGGCAAGAATT against GPA33
Not met
GGAAGUUCGCAGAAAAGUATT against PDIA5
Not met
GCAUCGCUGUAGGUUUUGATT against THBS2
Met
GGAACAAGAGUGGACGGAATT against PIAS3
Met

Decide: median seed-adjusted z-score of CUCCCUCGGUUAUAAAGAUTT against SLC4A5 strictly below 0.09?
Not met

Please indicate whether the reported median seed-adjusted z-score of GUUCUUGUCUAAGACAUGATT against ZNF799 is strictly below 0.09.
Met

In the record for CGACCCAGACAAUAGACUATT against CCNT1 , is median seed-adjusted z-score less than 0.09?
Met
